# MEASURED TARGET: NR1a/NR2B (Rattus norvegicus, UniProt P35439+Q00960)
# Sequence (Q00960 27-1482, other chains not shown): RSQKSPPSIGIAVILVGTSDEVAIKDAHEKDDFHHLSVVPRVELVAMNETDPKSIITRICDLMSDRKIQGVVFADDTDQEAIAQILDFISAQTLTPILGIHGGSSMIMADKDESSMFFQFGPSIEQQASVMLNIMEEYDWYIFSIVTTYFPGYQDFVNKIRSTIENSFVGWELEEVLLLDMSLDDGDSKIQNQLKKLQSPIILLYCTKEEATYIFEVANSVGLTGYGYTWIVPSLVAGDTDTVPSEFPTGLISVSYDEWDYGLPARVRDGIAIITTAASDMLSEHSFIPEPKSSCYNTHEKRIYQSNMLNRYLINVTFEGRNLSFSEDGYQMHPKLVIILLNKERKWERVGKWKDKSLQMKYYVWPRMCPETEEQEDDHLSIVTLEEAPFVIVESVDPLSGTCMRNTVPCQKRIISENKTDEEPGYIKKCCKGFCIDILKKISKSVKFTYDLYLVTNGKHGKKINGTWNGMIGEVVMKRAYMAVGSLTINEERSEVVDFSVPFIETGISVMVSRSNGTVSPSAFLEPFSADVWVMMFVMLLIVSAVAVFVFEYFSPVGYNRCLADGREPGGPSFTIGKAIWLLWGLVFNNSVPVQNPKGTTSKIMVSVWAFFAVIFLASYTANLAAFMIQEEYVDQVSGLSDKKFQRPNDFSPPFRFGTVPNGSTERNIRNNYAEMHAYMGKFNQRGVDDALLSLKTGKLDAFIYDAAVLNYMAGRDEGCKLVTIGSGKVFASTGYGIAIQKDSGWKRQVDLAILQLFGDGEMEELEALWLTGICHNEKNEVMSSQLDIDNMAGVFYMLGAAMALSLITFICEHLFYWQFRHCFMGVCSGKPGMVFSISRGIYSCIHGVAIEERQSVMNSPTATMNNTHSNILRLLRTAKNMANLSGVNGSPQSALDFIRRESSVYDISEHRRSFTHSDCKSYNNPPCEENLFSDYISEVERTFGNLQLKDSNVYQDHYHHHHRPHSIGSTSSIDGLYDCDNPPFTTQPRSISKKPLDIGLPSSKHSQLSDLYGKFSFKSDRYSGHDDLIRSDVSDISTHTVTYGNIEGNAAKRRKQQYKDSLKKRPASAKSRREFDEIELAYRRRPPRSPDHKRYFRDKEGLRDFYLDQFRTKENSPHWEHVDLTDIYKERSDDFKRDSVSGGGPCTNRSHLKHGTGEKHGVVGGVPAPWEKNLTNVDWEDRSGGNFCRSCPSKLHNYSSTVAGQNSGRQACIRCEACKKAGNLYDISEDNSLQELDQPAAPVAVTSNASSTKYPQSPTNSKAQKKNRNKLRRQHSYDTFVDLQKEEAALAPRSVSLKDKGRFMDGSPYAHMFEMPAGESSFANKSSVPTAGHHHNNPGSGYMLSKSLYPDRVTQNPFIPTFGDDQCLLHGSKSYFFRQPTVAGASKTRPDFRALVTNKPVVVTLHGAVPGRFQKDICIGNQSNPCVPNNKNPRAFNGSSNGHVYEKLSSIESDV
# EXPERIMENTAL PROTOCOL: Electrophysiological assay at NMDA receptor subunits expressed in Xenopus oocytes (two-electrode voltage clamp)
# Format: cell-based
# TEST CONTEXT: Table 1; cloned rat NMDA receptor subunits in Xenopus oocytes; currents activated by glutamate (100 μM) and glycine (1-100 μM); read-out: NR1a/NR2B Oocyte IC50
pIC50: −log10 of the molar value.
Where pIC50 equals or exceeds 6, the correct label is criterion met; where it does not, the label is criterion not met.

A selection of reference data follows.
[
  {
    "COMPOUND": "Oc1ccc([C@H]2CC[C@@H](NCCCc3ccccc3)CC2)cc1",
    "ASSIGNED CLASS": "criterion met"
  },
  {
    "COMPOUND": "Oc1ccc([C@H]2CC[C@H](NCCCCc3ccccc3)CC2)cc1",
    "ASSIGNED CLASS": "criterion met"
  },
  {
    "COMPOUND": "Oc1ccc([C@H]2CC[C@H](NCCCc3ccccc3)CC2)cc1",
    "ASSIGNED CLASS": "criterion met"
  },
  {
    "COMPOUND": "Oc1ccc([C@H]2CC[C@H](NCCCCCc3ccccc3)CC2)cc1",
    "ASSIGNED CLASS": "criterion met"
  }
]

Kindly consider the entry below.
Entry Oc1ccc([C@H]2CC[C@H](NCc3ccccc3)CC2)cc1 [Example 4b, trans-4-(4-Benzylaminocyclohexyl)phenol] : is its pIC50 no less than 6?
criterion not met

---

Examples of compounds with documented IC50 follow.
# MEASURED TARGET: NR1a/NR2B (Rattus norvegicus, UniProt P35439+Q00960)
# EXPERIMENTAL PROTOCOL: Electrophysiological assay at NMDA receptor subunits expressed in Xenopus oocytes (two-electrode voltage clamp)
# Assay type: cell-based
# TEST CONTEXT: Table 2; head names no subunit; electrophysiological assay results; read-out: IC50
Could you give me the number in µM? Just the number is fine.

Previously resolved entries follow.
[
  {
    "COMPOUND": "CC(CCc1ccccc1)N[C@H]1CC[C@H](c2ccc(O)cc2)CC1 (stereo partly shown)",
    "QUANTITATIVE READOUT": 0.1
  },
  {
    "COMPOUND": "Oc1ccc([C@H]2CC[C@H](NCCSc3ccccc3)CC2)cc1",
    "QUANTITATIVE READOUT": 0.04
  },
  {
    "COMPOUND": "CC(CCc1ccccc1)N[C@H]1CC[C@@H](c2ccc(O)cc2)CC1 (stereo partly shown)",
    "QUANTITATIVE READOUT": 0.6
  }
]

Below: the item to evaluate.
Return IC50 (reported value) for this compound: C[C@@H](Cc1ccccc1)N[C@H]1CC[C@H](c2ccc(O)cc2)CC1
16

---

Reported IC50 values are given for each entry in this list.
# MEASURED TARGET: NR1a/NR2B (Rattus norvegicus, UniProt P35439+Q00960)
# EXPERIMENTAL PROTOCOL: Electrophysiological assay at NMDA receptor subunits expressed in Xenopus oocytes (two-electrode voltage clamp)
# Format: cell-based
# TEST CONTEXT: Table 1; cloned rat NMDA receptor subunits in Xenopus oocytes; currents activated by glutamate (100 μM) and glycine (1-100 μM); read-out: NR1a/NR2B Oocyte IC50

[
  {
    "MOLECULE": "Oc1ccc([C@H]2CC[C@@H](NCc3ccccc3)CC2)cc1 [Example 4a, cis-4-(4-Benzylaminocyclohexyl)phenol]",
    "MEASURED TARGET": "NR1a/NR2B (Rattus norvegicus, UniProt P35439+Q00960)",
    "IC50": "70000 nM"
  },
  {
    "MOLECULE": "Oc1ccc([C@H]2CC[C@@H](NCCCCc3ccccc3)CC2)cc1",
    "MEASURED TARGET": "NR1a/NR2B (Rattus norvegicus, UniProt P35439+Q00960)",
    "IC50": "900 nM"
  },
  {
    "MOLECULE": "Oc1ccc([C@H]2CC[C@@H](NCCc3ccccc3)CC2)cc1 [Example 3a, cis-4-(4-Phenethylaminocyclohexyl)phenol]",
    "MEASURED TARGET": "NR1a/NR2B (Rattus norvegicus, UniProt P35439+Q00960)",
    "IC50": "830 nM"
  }
]

Return value of IC50 for input Oc1ccc([C@H]2CC[C@H](NCCc3ccccc3)CC2)cc1 , no commentary.
450 nM
